- testName: Cellular Toxicity (caspase-3) H-4-II-E (AID 663);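 on caspase-3 activation: cells exposed to compound for 16 hr before readout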
- conditionLabel: H-4-II-E rat hepatoma; caspase-3 activation; series mostly up to 92.2 µM
Inconclusive results are not listed. Calls of active or inactive are those of the source. The call rests on the fitted dose curve; in most records, active means well fitted activation curve with a large enough effect; inconclusive means small, poorly fitted or top-dose-only effect; inactive means flat fitted curve, though single readings scatter.
Lab note: assign the record to one of t for active, f for inactive

stdin: Lab log entry: NC(=NCCCCCCN=C(N)/N=C(\N)Nc1ccc(Cl)cc1)/N=C(\N)Nc1ccc(Cl)cc1 — outcome as called in the assay?
stdout: f

stdin: Hello, I am checking results. What call was entered for C[C@]12CC[C@@H]3c4ccc(O)cc4CC[C@H]3[C@@H]1CC[C@@H]2O ?
stdout: f

stdin: Returns: the outcome recorded for C=CCc1ccc(O)c(OC)c1 in this assay.
stdout: f

stdin: Could you kindly confirm the outcome this assay logged for CC(=O)Oc1ccc(C(c2ccc(OC(C)=O)cc2)c2ccccn2)cc1 ?
stdout: f

stdin: Which result was noted for this molecule in the test: COc1cccc2c1C(=O)c1c(O)c3c(c(O)c1C2=O)C[C@@](O)(C(C)=O)C[C@@H]3O[C@H]1C[C@H](N)[C@H](O)[C@H](C)O1
stdout: t

The origin of these recorded values is PubChem BioAssay (NCATS).
